# Test system: Sodium channel protein type 5 subunit alpha (site 2), SCN5A (r)
# Format: binding, rat
# Condition parameters: IPP screening at 10 uM; control veratridine
Label MET when Specific binding >= 20%; otherwise NOT MET.

CC(C)(C)c1ccc(CCOc2ncnc3ccccc23)cc1 [Fenazaquin]; MET

Qu. Check this compound for Specific binding at or above 20%: O=CCCCC=O [Glutaraldehyde, Pentanedial]
Ans. NOT MET

Qu. Specific binding >= 20% for CC1(C)C(C=C(Cl)Cl)C1C(=O)OC(C#N)c1cccc(Oc2ccccc2)c1 (stereo not drawn) [Cypermethrin] ?
Ans. NOT MET

Qu. Does Specific binding meet or surpass 20% for N#CC(CCc1ccc(Cl)cc1)(Cn1cncn1)c1ccccc1 (stereo not drawn) [Fenbuconazole] ?
Ans. MET

Qu. Evaluate CCCCOC(=O)c1ccc(O)cc1 [Butylparaben, Butyl 4-hydroxybenzoate] : Specific binding at minimum 20%?
Ans. MET

---

Listed below: Specific binding values for each entry.
# Test system: Potassium Voltage-Gated Channel Kv non-selective, KCNQ1 (r)
# Protocol description: IPP KCNQ1 binding (antagonist radioligand)
# Set-up: species or system rat
# Condition parameters: IPP screening at 10 uM; control α-dendrotoxin
Counter-ions that a name gives are not always drawn.
Could you give me the number in %? Just the number is fine.

Worked cases, Specific binding given:
O=C1CN(N=Cc2ccc([N+](=O)[O-])o2)C(=O)N1; -14.6
CC1(C)C(C=C(Cl)Cl)C1C(=O)OC(C#N)c1cccc(Oc2ccccc2)c1 (stereo not shown); 0.9
NNc1nncc2ccccc12 [Hydralazine hydrochloride]; -8.8

Qu. Consider the molecule O=CCCCC=O and give its recorded Specific binding.
Ans. 5.2

---

# Test system: Tubulin (r)
# Protocol description: IPP Tubulin binding
# Set-up: species or system rat
# Condition parameters: 10 uM; ligand/control Colchicine
Structures can show the parent of a compound that is named as a salt.
Value type: IPP screening %, Specific binding

CC1(C)C(C=C(Cl)Cl)C1C(=O)OC(C#N)c1cccc(Oc2ccccc2)c1 (centres unmarked); 8.0%
COc1ccc(CCN(C)CCCC(C#N)(c2ccc(OC)c(OC)c2)C(C)C)cc1OC (centres unmarked) [Verapamil Hydrochloride]; 13.0%
N#CC(CCc1ccc(Cl)cc1)(Cn1cncn1)c1ccccc1 (centres unmarked); -20.0%
NNc1nncc2ccccc12 [Hydralazine hydrochloride]; 2.0%

Proceed to the following item.
Qu. For Cn1cnc([N+](=O)[O-])c1Sc1ncnc2nc[nH]c12 , write its IPP screening %, Specific binding.
Ans. 6.0%

---

Measured risk, listed per entry.
# Condition parameters: human
Counter-ions that a name gives are not always drawn.
Output spec: single numeric token, no unit.

Look over these answered cases.
O=CCCCC=O [Glutaraldehyde, Pentanedial]; 0
O=C(O)COCCN1CCN(C(c2ccccc2)c2ccc(Cl)cc2)CC1 (centres unmarked) [Cetirizine dihydrochloride]; 1
Nc1cc([N+](=O)[O-])cc(Cl)c1O [2-Amino-6-chloro-4-nitrophenol]; 0

Qu. Supply recorded risk for Cc1c(O)cccc1O [2-methyl-1,3-benzenediol, 2-Methylbenzene-1,3-diol] here.
Ans. 0

Qu. Give risk for the following compound: NS(=O)(=O)c1cc(C(=O)O)c(NCc2ccco2)cc1Cl [Furosemide]
Ans. 1

---

# Tested system: Potassium voltage-gated channel subfamily H member 2 hERG, KCNH2 (h) (Homo sapiens, UniProt Q12809)
# Sequence (Q12809 whole entry): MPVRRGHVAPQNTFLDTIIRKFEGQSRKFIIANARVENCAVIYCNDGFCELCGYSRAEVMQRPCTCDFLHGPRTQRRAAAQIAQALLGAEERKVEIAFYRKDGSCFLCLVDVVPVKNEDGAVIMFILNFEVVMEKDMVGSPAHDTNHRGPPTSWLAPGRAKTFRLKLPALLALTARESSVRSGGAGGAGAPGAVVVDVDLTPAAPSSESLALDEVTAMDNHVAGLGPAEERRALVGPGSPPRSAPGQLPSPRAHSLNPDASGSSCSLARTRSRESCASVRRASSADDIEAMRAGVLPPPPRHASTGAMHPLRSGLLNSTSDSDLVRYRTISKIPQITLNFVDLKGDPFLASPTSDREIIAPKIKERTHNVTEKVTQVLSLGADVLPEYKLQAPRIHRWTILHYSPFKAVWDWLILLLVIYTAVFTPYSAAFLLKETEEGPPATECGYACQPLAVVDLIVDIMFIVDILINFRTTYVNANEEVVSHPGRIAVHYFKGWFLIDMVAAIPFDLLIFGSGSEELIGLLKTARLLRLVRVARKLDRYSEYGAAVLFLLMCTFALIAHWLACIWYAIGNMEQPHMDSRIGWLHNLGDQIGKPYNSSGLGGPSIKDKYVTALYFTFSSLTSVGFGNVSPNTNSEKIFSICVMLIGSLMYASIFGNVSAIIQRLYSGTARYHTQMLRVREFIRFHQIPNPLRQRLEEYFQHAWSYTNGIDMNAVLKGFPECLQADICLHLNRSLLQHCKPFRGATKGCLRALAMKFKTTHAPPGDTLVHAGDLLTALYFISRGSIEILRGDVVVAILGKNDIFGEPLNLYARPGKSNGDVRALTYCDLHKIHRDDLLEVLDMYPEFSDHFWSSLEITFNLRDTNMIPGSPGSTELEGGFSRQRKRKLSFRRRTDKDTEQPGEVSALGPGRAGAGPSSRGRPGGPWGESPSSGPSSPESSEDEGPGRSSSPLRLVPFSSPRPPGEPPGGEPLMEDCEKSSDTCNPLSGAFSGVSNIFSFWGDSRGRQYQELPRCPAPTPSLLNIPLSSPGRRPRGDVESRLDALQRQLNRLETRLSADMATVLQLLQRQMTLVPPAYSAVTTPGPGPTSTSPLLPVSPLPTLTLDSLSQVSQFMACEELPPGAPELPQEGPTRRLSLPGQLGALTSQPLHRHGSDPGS
# Condition parameters: human
Value type: IPP screening %, Specific binding (%)
# output: bare number, implied unit %

CC(C)[C@H](N)C(=O)O [L-valine, L-Valine]; -3.8

Qu. Tell me its IPP screening %, Specific binding given CC1(C)O[C@@H]2[C@@H](CO[C@@]3(COS(N)(=O)=O)OC(C)(C)O[C@@H]23)O1 [Topiramate] as the entry.
Ans. -13.1

Qu. Please report IPP screening %, Specific binding for the following molecule: C[C@H]1O[C@@H](O[C@H]2[C@@H](O)C[C@H](O[C@H]3[C@@H](O)C[C@H](O[C@H]4CC[C@@]5(C)[C@H](CC[C@@H]6[C@@H]5C[C@@H](O)[C@]5(C)[C@@H](C7=CC(=O)OC7)CC[C@]65O)C4)O[C@@H]3C)O[C@@H]2C)C[C@H](O)[C@@H]1O [Digoxin]
Ans. -6.2

Qu. Give IPP screening %, Specific binding for the following molecule: CC(=O)CC(c1ccccc1)c1c([O-])c2ccccc2oc1=O.[Na+] (stereo not shown) [Warfarin]
Ans. 10.1

Where do these numbers come from? They come from paper PMC11879040.
